Assay: Cytotoxicity against human E6SM cells
Assay type: cell-based
Conditions: E6SM cells
Below, each entry is listed alongside its reported MCC.

Example results:
[[record]]
compound = "C=CCNC(=S)Nc1ccc(OCc2n[nH]c(=S)n2-c2ccccc2)cc1"
reported_metric = "MCC"
recorded_measurement = "> 400 µg/mL"

[[record]]
compound = "O=c1[nH]c(=O)n([C@H]2C[C@H](O)[C@@H](CO)O2)cc1/C=C/Br [BRIVUDINE]"
reported_metric = "MCC"
recorded_measurement = "> 400 µg/mL"


// field: MCC; key: CCNC(=S)Nc1ccc(-c2n[nH]c(=S)n2-c2ccccc2)cc1 ; value = ≥ 3.2 µg/mL

// field: MCC; key: S=C(Nc1ccccc1)Nc1ccc(-c2n[nH]c(=S)n2-c2ccccc2)cc1 ; value = ≥ 80 µg/mL

###

Below, each entry is listed alongside its reported MCC.
Experiment: Cytotoxicity against human HeLa cells
Type: cell-based

Example results:
[[record]]
compound_structure = "C=CCn1c(COc2ccc(N)cc2)n[nH]c1=S"
reported_metric = "MCC"
recorded_measurement = "> 400 µg/mL"

[[record]]
compound_structure = "Cn1c(COc2ccc(N)cc2)n[nH]c1=S"
reported_metric = "MCC"
recorded_measurement = "> 400 µg/mL"


// field: MCC; key: CNC(=S)Nc1ccc(-c2n[nH]c(=S)n2-c2ccccc2)cc1 ; value = ≥ 400 µg/mL

###

Below, each entry is listed alongside its reported MCC.
Experiment: Cytotoxicity against human HeLa cells
Format: cell-based

Example results:
[[record]]
compound = "Nc1ncnc2c1ncn2C[C@H](O)CO [(S)-DHPA]"
recorded_measurement = "> 400 µg/mL"

[[record]]
compound = "NC(=O)c1ncn([C@@H]2O[C@H](CO)[C@@H](O)[C@H]2O)n1"
recorded_measurement = "> 400 µg/mL"

[[record]]
compound = "CNC(=S)Nc1ccc(OCc2n[nH]c(=S)n2C)cc1"
recorded_measurement = "> 400 µg/mL"

[[record]]
compound = "CCCCCCNC(=S)Nc1ccc(-c2n[nH]c(=S)n2CC)cc1"
recorded_measurement = "≥ 400 µg/mL"

[[record]]
compound = "Cn1c(COc2ccc(NC(=S)Nc3ccccc3)cc2)n[nH]c1=S"
recorded_measurement = "> 400 µg/mL"


The record that follows has no MCC shown yet.
// field: MCC; key: O=c1[nH]c(=O)n([C@H]2C[C@H](O)[C@@H](CO)O2)cc1/C=C/Br ; value = ≥ 400 µg/mL

###

Test system: Mammalian orthoreovirus 1
Assay: Antiviral activity against Reo virus 1 in african green monkey Vero cells assessed as reduction of virus-induced cytopathogenicity
Type: functional
REPORTED METRIC: MIC

Example results:
[[record]]
compound = "CNC(=S)Nc1ccc(-c2nnc(SCc3ccccc3)n2C)cc1"
target_of_assay = "Mammalian orthoreovirus 1"
recorded_measurement = "> 16 µg/mL"

[[record]]
compound = "CCn1c(COc2ccc(NC(=S)NC)cc2)n[nH]c1=S"
target_of_assay = "Mammalian orthoreovirus 1"
recorded_measurement = "> 80 µg/mL"

[[record]]
compound = "C=CCNC(=S)Nc1ccc(OCc2n[nH]c(=S)n2CC=C)cc1"
target_of_assay = "Mammalian orthoreovirus 1"
recorded_measurement = "> 80 µg/mL"


// field: MIC; key: CCNC(=S)Nc1ccc(OCc2n[nH]c(=S)n2C)cc1 ; value = > 80 µg/mL

// field: MIC; key: O=c1[nH]c(=O)n([C@H]2C[C@H](O)[C@@H](CO)O2)cc1/C=C/Br [BRIVUDINE] ; value = > 400 µg/mL
